Catalogue of Potency values
- assay.comment: qHTS Assay for Modulators of miRNAs and/or Inhibitors of miR-21
- conditions: HeLa miR-21-FLuc reporter, luciferase luminescence, 48 h; actives lower the signal
In all, about 340,000 compounds went through this assay and about 3,300 (0.97%) were called active. Inconclusive results (about 9%) are left out. The list shows a part of the results.

Q: Give the reported Potency for this molecule. "C=CCOc1c(Br)cc(/C=N/Nc2ccc(C(=O)O)cc2)cc1OCC"
Ans: 2.93 µM (active)

Q: State its Potency: "Nc1c(C(=O)c2cccs2)sc2nsc(SCCN3CCCCC3)c12"
Ans: 4.14 µM (active)

Q: Answer with the recorded Potency of "Cc1cccc2nc(CSc3ccc(Cl)cc3)cn12" only.
Ans: 4.14 µM (active)

Q: Query Potency for "COc1ccc2nc(NC(=O)c3ccc(Br)s3)sc2c1"
Ans: 1.17 µM (active)

Q: Give reported Potency value for "O=C(Nc1ccc(Cl)cn1)c1ccc2c(Cl)c3c(nc2c1)CCC3"
Ans: 0.185 µM (active)

Q: Give the value of Potency reported for the following: "CC(C)(C)c1ccc(C(=O)NCc2ccccc2)cc1"
Ans: 14.7 µM (active)

Q: Please indicate Potency recorded for "O=C(CSCc1ccccc1)Nc1ccc(F)c(F)c1"
Ans: 14.7 µM (active)

Q: Determine from records and report Potency for "c1ccc2nc(SCc3cn4ccccc4n3)cnc2c1"
Ans: 9.27 µM (active)

Q: Output Potency of "Cc1c(C(=O)c2ccccc2)oc2ccc3ccccc3c12"
Ans: 2.93 µM (active)

Q: Give Potency for "O=C(O)c1cc(N/N=C/c2ccc(-c3ccc(F)cc3)o2)ccc1Cl"
Ans: 16.5 µM (active)

More entries:
Q: Determine from records and report Potency for "Cc1ccc(NC(=O)CSCc2ccc(F)cc2)cc1"
Ans: 6.56 µM (active)

Q: Supply Potency value. Item: "Clc1ccc2nc(CSCc3ccccc3)cn2c1"
Ans: 2.93 µM (active)

Q: Look up Potency of "c1cnc2c(SCc3ccc(-c4nnco4)cc3)cccc2c1" and report it.
Ans: 13.1 µM (active)

Q: Specify Potency for "CCc1ccc(C(=O)Nc2cc(C)ccc2F)s1" and stop.
Ans: 6.56 µM (active)

Q: Input "COc1ccc2nc(NC(=O)c3cccnc3SC)sc2c1" , output reported Potency.
Ans: 2.93 µM (active)

Q: Item "Cc1ccccc1Nc1nc(N)nc(-c2oc3ccccc3c2C)n1" : provide Potency
Ans: 4.65 µM (active)

Q: # return recorded Potency for entry "CC(C)Cc1cc(C(=O)NCCc2ccccc2)no1"
Ans: 2.33 µM (active)

Q: For "COCCNC(=O)c1ccc2c(Cl)c3c(nc2c1)CCC3" , write its Potency.
Ans: 5.85 µM (active)

====

- assay.comment: qHTS Assay for Modulators of miRNAs and/or Inhibitors of miR-21
- conditions: HeLa miR-21-FLuc reporter, luciferase luminescence, 48 h; actives lower the signal
Hit rate of the full screen: of about 340,000 compounds, about 3,300 (0.97%) were called active. Not shown: some 9% with an inconclusive outcome. The list shows a part of the results.
# key: entry, value: Potency

Example entries begin here.
Q: Quote Potency reported for "COc1ccc(-c2noc(CSc3ccccc3)n2)cc1OC" please.
Ans: 11.7 µM (active)

Q: Quick one: give measured Potency for "Cn1cccc1-c1nc2ccc([N+](=O)[O-])cc2[nH]1"
Ans: 2.07 µM (active)

Q: Please give measured Potency of the following entry: "Cc1cc(NCc2ccccn2)ccc1Br"
Ans: 9.27 µM (active)

Q: Check the records and state Potency for "Cc1nc2scc(-c3ccccc3)c2c(=O)n1N=C1C=CC(=O)C=C1"
Ans: 10.4 µM (active)

Q: Answer with the recorded Potency of "Cc1cccc(NC(=O)c2sc3nc(N)c(C#N)cc3c2N)c1" only.
Ans: 4.14 µM (active)

---
Q: # return recorded Potency for entry CC1=NN(C(N)=S)C(=O)C1N=Nc1ccc(Br)cc1 (stereo not given)
Ans: 1.31 µM (active)

====

The following compounds are listed with their measured Potency values.
- assay.comment: qHTS Assay for Modulators of miRNAs and/or Inhibitors of miR-21; also: potency is read from the fitted curve at half-maximal effect; nearly all actives have a fitted effect of over 55% in size
- conditions: HeLa miR-21-FLuc reporter, luciferase luminescence, 48 h; actives lower the signal
Out of some 340,000 compounds screened, about 3,300 (0.97%) were called active. Another 9% or so got no clear call; they are omitted. Some of the results follow.

The examples below pair each entry with its known result.
Q: Given "CC(=O)c1ccc2c(c1)Cc1cc(C(C)=O)ccc1-2" , respond with its Potency.
Ans: 1.85 µM (active)

Q: Recall and state the measured Potency for "COc1ccccc1/C=N\N=C(\N)c1ccccn1" .
Ans: 2.07 µM (active)

Q: Tell me measured Potency for "C=CCNC(=S)NNC(=O)COc1ccc2cc(Br)ccc2c1" please.
Ans: 7.36 µM (active)

Q: For "O=C(Nc1cccc(Cl)c1)OCc1ccccn1" , write its Potency.
Ans: 6.56 µM (active)

Q: State, in one line, measured Potency of "COc1ccc(CNC(=O)Nc2cccc(Cl)c2)cc1"
Ans: 3.69 µM (active)

Q: For the compound "c1ccc(Nc2nnc(-c3cccnc3)s2)cc1" , report Potency.
Ans: 0.261 µM (active)

--- query ---
Q: State its Potency: "Cc1ccc(COc2ccc3c(c2)OCO3)cc1"
Ans: 3.69 µM (active)

====

- assay.comment: qHTS Assay for Modulators of miRNAs and/or Inhibitors of miR-21; also: potency is read from the fitted curve at half-maximal effect; nearly all actives have a fitted effect of over 55% in size
- conditions: HeLa miR-21-FLuc reporter, luciferase luminescence, 48 h; actives lower the signal
Among all 340,000 compounds or so, about 3,300 (0.97%) were called active. Not shown: some 9% with an inconclusive outcome. This is one part of the list.
readout.kind: Potency

# count of solved cases: 3
Q: Given the molecule "CCCCCCOC(=O)c1ccc(OC(=O)c2cccnc2)cc1" , write its reported Potency.
Ans: 6.56 µM (active)

Q: Return Potency for the following molecule: "CCc1c(C)c2ccc(O)c(CN3CCN(c4ccccc4)CC3)c2oc1=O"
Ans: 6.56 µM (active)

Q: Input "NNc1nc(-c2ccccc2Cl)nc2sc3c(c12)CCCC3" , output reported Potency.
Ans: 5.21 µM (active)

From here, focus on the item given below.
Q: Query Potency for "Cc1cc(N(C)C)ccc1N=Nc1ccc2ncccc2c1"
Ans: 1.65 µM (active)

====

- assay.comment: qHTS Assay for Modulators of miRNAs and/or Inhibitors of miR-21; also: potency is read from the fitted curve at half-maximal effect; nearly all actives have a fitted effect of over 55% in size
- conditions: HeLa miR-21-FLuc reporter, luciferase luminescence, 48 h; actives lower the signal
The campaign covered roughly 340,000 compounds. About 3,300 (0.97%) were called active. Another 9% or so got no clear call; they are omitted. Some of the results follow.
Measured Potency of individual entries

Q: For "c1ccc(CN2CCN(c3nc4ccccc4s3)CC2)cc1" , write its Potency.
Ans: 1310 nM (active)

Q: Identify Potency associated with the molecule "Cc1nnc(SCc2ccccc2)c2cc3sccc3n12"
Ans: 14700 nM (active)

Q: Specify measured Potency for "Cc1ccc(NC(=O)C(=O)c2ccc(C)cc2)cc1" .
Ans: 2930 nM (active)

Q: Complete the entry with Potency for "Cc1ccc(-c2nc3ccccc3nc2NN)cc1"
Ans: 1170 nM (active)

Q: Return reported Potency. Input molecule: "Cc1ccc2nc(/C(C#N)=C/c3ccc(-c4ccc(C(=O)OC(C)C)cc4)o3)[nH]c2c1"
Ans: 4140 nM (active)

Next:
Q: Consider the molecule "Oc1c(C2=NCCNC(C(F)(F)F)=C2)ccc2ccccc12" and give its recorded Potency.
Ans: 2070 nM (active)

Q: Return value of Potency for input "CC(C)(C)c1ccc(-c2noc(-c3ccno3)n2)cc1" , no commentary.
Ans: 1170 nM (active)

====

- assay.comment: qHTS Assay for Modulators of miRNAs and/or Inhibitors of miR-21; also: potency is read from the fitted curve at half-maximal effect; nearly all actives have a fitted effect of over 55% in size
- conditions: HeLa miR-21-FLuc reporter, luciferase luminescence, 48 h; actives lower the signal
The whole screen tested about 340,000 compounds, of which about 3,300 (0.97%) were called active. About 9% were inconclusive and are not listed. This is one part of the list.
readout.kind: Potency

The cases that follow already have their Potency on record.
Q: Identify Potency associated with the compound "C/C(=N\Nc1ccc(Cl)c(C(=O)O)c1)c1ccccn1"
Ans: 16.5 µM (active)

Q: Annotate the compound "Oc1c(/C=N/c2ccccn2)sc2ccccc12" with its measured Potency.
Ans: 2.07 µM (active)

Q: Quick one: give measured Potency for "CC(C)c1ccc(NC(=O)COc2ccccc2)cc1"
Ans: 7.36 µM (active)

Q: Report Potency for "CCOC(=O)c1c(C)[nH]c(C(=O)COC(=O)CCSc2ccccc2)c1C"
Ans: 13.1 µM (active)

Q: State, in one line, measured Potency of COc1ccc(C2=NN(c3ccc(C(=O)O)cc3)C(c3ccc(OC)c(OC)c3)C2)cc1 (stereo unspecified)
Ans: 18.5 µM (active)

Next:
Q: Supply reported Potency belonging to this compound: "C/C(=N\Nc1ccc(Cl)c(C(=O)O)c1)c1ccc2c(c1)OCO2"
Ans: 11.7 µM (active)

Q: Provide measured Potency value, entry: "Cc1cc(/C=C\c2ccccc2)nc2ccccc12"
Ans: 7.36 µM (active)

Q: Fill in Potency for record "Cc1ccc(N=Nc2c(O)[nH]c3ccc(F)cc23)cc1"
Ans: 1.31 µM (active)

Q: Give the reported value of Potency for this record: "Oc1cccc(Nc2ncnc3c2oc2ccccc23)c1"
Ans: 5.21 µM (active)

Q: Assign Potency to the following record: "CC(C)c1ccc(NC(=O)COc2ccc(F)cc2C(=O)c2cnn(-c3ccccc3)c2)cc1"
Ans: 2.93 µM (active)

Q: Supply measured Potency of "C/C(=N\Nc1ccc(Cl)c(C(=O)O)c1)c1cccc([N+](=O)[O-])c1" in your reply.
Ans: 13.1 µM (active)
